Target: Sortase A (SrtA) (Staphylococcus aureus)
Sequence (Q2FV99 whole entry): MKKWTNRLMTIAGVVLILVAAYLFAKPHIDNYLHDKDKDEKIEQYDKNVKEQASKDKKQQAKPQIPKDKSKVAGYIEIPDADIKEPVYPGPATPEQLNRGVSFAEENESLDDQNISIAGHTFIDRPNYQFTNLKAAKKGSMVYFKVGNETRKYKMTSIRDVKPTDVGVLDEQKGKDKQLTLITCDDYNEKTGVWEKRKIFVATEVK
Experiment: intrinsic fluorescence quenching with purified recombinant SrtA (KA); also FRET inhibition of purified SrtA, IC50 =[…], reversible
Assay type: binding

Molecule smiles | Endpoint unit | Kd
O=c1cc(-c2ccc(O)cc2)oc2cc(O)c([C@@H]3O[C@H](CO)[C@@H](O)[C@H](O)[C@H]3O)c(O)c12 | µM | 14

Source of measurements: paper PMC9668100
